- SYSTEM_TESTED: human GLP-1R (Homo sapiens (Human), UniProt P43220, L260F)
- Sequence (P43220 24-463 L260F): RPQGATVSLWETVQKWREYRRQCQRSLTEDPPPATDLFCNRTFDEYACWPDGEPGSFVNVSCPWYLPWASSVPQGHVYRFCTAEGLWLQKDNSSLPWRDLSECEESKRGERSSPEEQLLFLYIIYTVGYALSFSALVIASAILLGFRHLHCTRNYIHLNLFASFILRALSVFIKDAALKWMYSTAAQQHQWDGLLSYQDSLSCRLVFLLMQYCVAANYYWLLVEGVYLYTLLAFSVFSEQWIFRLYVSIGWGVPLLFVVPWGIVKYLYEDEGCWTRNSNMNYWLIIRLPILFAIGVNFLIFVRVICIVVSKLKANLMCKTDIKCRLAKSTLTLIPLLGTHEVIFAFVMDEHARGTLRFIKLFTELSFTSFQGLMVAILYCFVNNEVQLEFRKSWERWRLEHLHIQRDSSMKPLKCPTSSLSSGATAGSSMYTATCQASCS
- PROTOCOL_SUMMARY: CHO GLP-1R Clone C6—Assay 2: HTRF cAMP cell-based functional agonist assay (low GLP-1R density)
- ASSAY_CONDITIONS: CHO GLP-1R Clone C6, cAMP HTRF; geometric mean
MEASUREMENT_TYPE: EC50 (nM)

Lab note: compound COCCn1c(CN2CC[C@@H](c3cccc(OCc4ccc(Cl)cc4F)n3)[C@@H](C)C2)nc2ccc(C(=O)O)cc21 (racemic) [Example 1A-25] tested on human GLP-1R (Homo sapiens (Human), UniProt P43220, L260F); recorded EC50 was 1000

Lab note: compound O=C(O)c1ccc2nc(CN3CCC(c4cccc(OCc5ccc(Cl)cc5F)n4)CC3)n([C@@H]3CCOC3)c2c1 [Example 10A-60] tested on human GLP-1R (Homo sapiens (Human), UniProt P43220, L260F); recorded EC50 was 460

Lab note: compound O=C(O)c1ccc2nc(CN3CCC(c4cccc(OCc5ccc(Cl)cc5F)n4)CC3)n([C@H]3CCOC3)c2c1 [Example 10A-71] tested on human GLP-1R (Homo sapiens (Human), UniProt P43220, L260F); recorded EC50 was 5800

A. O=C(O)c1ccc2nc(CN3CCC(c4cccc(OCc5ccc(Cl)cc5F)n4)CC3)n(Cc3cc[nH]n3)c2c1 [Example 11A-24]
B. N#Cc1ccc(COc2cccc(C3CCN(Cc4nc5ccc(C(=O)O)cc5n4Cc4cnco4)CC3)n2)c(F)c1 [Example 10A-43]
// query Larger number for EC50: A , or B ? To answer, give the label that identifies your chosen option.
// result A
(A: 450 nM, B: 48 nM)

Numbers sourced from patent US10208019B2.
